So I've got a bunch of molecules here, and I need their pIC50 values.
Experimental System: recombinant human Estrogen Receptor alpha ligand binding domain, residues 307-554 (ER alpha-LBD (GST)) (Homo sapiens, UniProt P03372)
Sequence (P03372 307-554): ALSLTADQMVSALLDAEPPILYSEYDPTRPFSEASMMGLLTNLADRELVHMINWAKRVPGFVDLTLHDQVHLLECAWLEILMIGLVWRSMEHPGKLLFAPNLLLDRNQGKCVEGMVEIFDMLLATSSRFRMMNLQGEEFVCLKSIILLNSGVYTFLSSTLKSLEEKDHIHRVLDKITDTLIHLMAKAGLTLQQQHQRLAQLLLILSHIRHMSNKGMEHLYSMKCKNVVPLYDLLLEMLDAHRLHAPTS
Test: ERα binding assay (LanthaScreen TR-FRET competition)
Experimental Parameters: TR-FRET competition with Fluormone ES2 tracer, 4 hours at room temperature; single experiment or average of two or more
Keep it numeric: pIC50 is minus log10 of the concentration in mol/L.

Please supply the value of reported pIC50 for the item Cc1ncsc1-c1ccc(CNC(=O)[C@@H]2C[C@@H](O)CN2C(=O)[C@@H](NC(=O)CN(C)CCCCCOc2cc(F)c(C3c4[nH]c5ccccc5c4C[C@@H](C)N3CC(C)(C)F)c(F)c2)C(C)(C)C)cc1 (stereo partly shown) [Example 90]
8.92

Please supply the value of reported pIC50 for the item Cc1ncsc1-c1ccc(CNC(=O)[C@@H]2C[C@@H](O)CN2C(=O)[C@@H](NC(=O)COCc2ccc(COc3cc(F)c([C@@H]4c5[nH]c6ccccc6c5C[C@@H](C)N4CC(C)(C)F)c(F)c3)cn2)C(C)(C)C)cc1 [Example 86]
9.15

Please supply the value of reported pIC50 for the item Cc1ncsc1-c1ccc(CNC(=O)[C@@H]2C[C@@H](O)CN2C(=O)[C@@H](NC(=O)COCCOCCOCCNC(=O)/C=C/c2cc(F)c([C@@H]3c4[nH]c5ccccc5c4C[C@@H](C)N3CC(C)(C)F)c(F)c2)C(C)(C)C)cc1 [Example 63, Trifluoroacetic Acid]
9.00

Please supply the value of reported pIC50 for the item Cc1ncsc1-c1ccc(CNC(=O)[C@@H]2C[C@@H](O)CN2C(=O)[C@@H](NC(=O)CCOCCCCCCCOc2cc(F)c([C@@H]3c4[nH]c5ccccc5c4C[C@@H](C)N3CC(C)(C)F)c(F)c2)C(C)(C)C)cc1 [Example 115]
9.15

Please supply the value of reported pIC50 for the item Cc1ncsc1-c1ccc(CNC(=O)[C@@H]2C[C@@H](O)CN2C(=O)[C@@H](NC(=O)CN2CCN(CCCCCOc3cc(F)c([C@@H]4c5[nH]c6ccccc6c5C[C@@H](C)N4CC(C)(C)F)c(F)c3)CC2)C(C)(C)C)cc1 [Example 2]
9.22

Please supply the value of reported pIC50 for the item Cc1ncsc1-c1ccc(CNC(=O)[C@@H]2C[C@@H](O)CN2C(=O)[C@@H](NC(=O)COCCOCCOCCOc2cc(F)c([C@@H]3c4[nH]c5ccccc5c4C[C@@H](C)N3CC(C)(C)F)c(F)c2)C(C)(C)C)cc1 [Example 38]
9.15

Please supply the value of reported pIC50 for the item Cc1ncsc1-c1ccc(CNC(=O)[C@@H]2C[C@@H](O)CN2C(=O)[C@@H](NC(=O)COCCCOCCCCCOc2cc(F)c([C@@H]3c4[nH]c5ccccc5c4C[C@@H](C)N3CC(C)(C)F)c(F)c2)C(C)(C)C)cc1 [Example 138]
9.22

Please supply the value of reported pIC50 for the item Cc1ncsc1-c1ccc(CNC(=O)[C@@H]2C[C@@H](O)CN2C(=O)[C@@H](NC(=O)COc2cccc(COc3cc(F)c([C@@H]4c5[nH]c6ccccc6c5C[C@@H](C)N4CC(C)(C)F)c(F)c3)c2)C(C)(C)C)cc1 [Example 20]
9.00

Please supply the value of reported pIC50 for the item Cc1ncsc1-c1ccc(CNC(=O)[C@@H]2C[C@@H](O)CN2C(=O)[C@@H](NC(=O)COCCc2ccc(COc3cc(F)c([C@@H]4c5[nH]c6ccccc6c5C[C@@H](C)N4CC(C)(C)F)c(F)c3)cc2)C(C)(C)C)cc1 [Example 53]
9.00

Please supply the value of reported pIC50 for the item Cc1ncsc1-c1ccc(CNC(=O)[C@@H]2C[C@@H](O)CN2C(=O)[C@@H](NC(=O)COCCOCCOCC(=O)Nc2ccc([C@@H]3c4[nH]c5ccccc5c4C[C@@H](C)N3CC(C)(C)F)cc2)C(C)(C)C)cc1 [Example 57, Trifluoroacetic Acid]
8.06

Please supply the value of reported pIC50 for the item Cc1ncsc1-c1ccc(CNC(=O)[C@@H]2C[C@@H](O)CN2C(=O)[C@@H](NC(=O)CCCCOCCCCCOc2cc(F)c([C@@H]3c4[nH]c5ccccc5c4C[C@@H](C)N3CC(C)(C)F)c(F)c2)C(C)(C)C)cc1 [Example 113]
9.22

Please supply the value of reported pIC50 for the item Cc1ncsc1-c1ccc(CNC(=O)[C@@H]2C[C@@H](O)CN2C(=O)[C@@H](NC(=O)COCCOCCCCCOc2cc(F)c([C@@H]3c4[nH]c5ccccc5c4C[C@@H](C)N3CC(C)(C)F)c(F)c2)C(C)(C)C)cc1 [Example 97]
9.30

Please supply the value of reported pIC50 for the item Cc1ncsc1-c1ccc(CNC(=O)[C@@H]2C[C@@H](O)CN2C(=O)[C@@H](NC(=O)COC2CCN(CCCNC(=O)/C=C/c3cc(F)c([C@@H]4c5[nH]c6ccccc6c5C[C@@H](C)N4CC(C)(C)F)c(F)c3)CC2)C(C)(C)C)cc1 [Example 65, Trifluoroacetic Acid]
8.96

Please supply the value of reported pIC50 for the item Cc1ncsc1-c1ccc(CNC(=O)[C@@H]2C[C@@H](O)CN2C(=O)[C@@H](NC(=O)COCCCCCOc2ccc([C@@H]3c4[nH]c5ccccc5c4C[C@@H](C)N3CC(F)F)nc2)C(C)(C)C)cc1 [Example 17]
8.26

Please supply the value of reported pIC50 for the item Cc1ncsc1-c1ccc(CNC(=O)[C@@H]2C[C@@H](O)CN2C(=O)[C@@H](NC(=O)COc2ccc(OCCNC(=O)/C=C/c3cc(F)c([C@@H]4c5[nH]c6ccccc6c5C[C@@H](C)N4CC(C)(C)F)c(F)c3)cc2)C(C)(C)C)cc1 [Example 61, Trifluoroacetic Acid]
9.00

Please supply the value of reported pIC50 for the item Cc1ncsc1-c1ccc(CNC(=O)[C@@H]2C[C@@H](O)CN2C(=O)[C@@H](NC(=O)COCCOc2ccc(COc3cc(F)c([C@@H]4c5[nH]c6ccccc6c5C[C@@H](C)N4CC(C)(C)F)c(F)c3)cc2)C(C)(C)C)cc1 [Example 5]
9.10
